Reference source for all entries: patent US6972296B2

Target: α4β1 integrin (Homo sapiens, UniProt P05556+P13612)
Construct: endogenous in cells; host or cells: Ramos cells
Sequence (P13612 34-1032): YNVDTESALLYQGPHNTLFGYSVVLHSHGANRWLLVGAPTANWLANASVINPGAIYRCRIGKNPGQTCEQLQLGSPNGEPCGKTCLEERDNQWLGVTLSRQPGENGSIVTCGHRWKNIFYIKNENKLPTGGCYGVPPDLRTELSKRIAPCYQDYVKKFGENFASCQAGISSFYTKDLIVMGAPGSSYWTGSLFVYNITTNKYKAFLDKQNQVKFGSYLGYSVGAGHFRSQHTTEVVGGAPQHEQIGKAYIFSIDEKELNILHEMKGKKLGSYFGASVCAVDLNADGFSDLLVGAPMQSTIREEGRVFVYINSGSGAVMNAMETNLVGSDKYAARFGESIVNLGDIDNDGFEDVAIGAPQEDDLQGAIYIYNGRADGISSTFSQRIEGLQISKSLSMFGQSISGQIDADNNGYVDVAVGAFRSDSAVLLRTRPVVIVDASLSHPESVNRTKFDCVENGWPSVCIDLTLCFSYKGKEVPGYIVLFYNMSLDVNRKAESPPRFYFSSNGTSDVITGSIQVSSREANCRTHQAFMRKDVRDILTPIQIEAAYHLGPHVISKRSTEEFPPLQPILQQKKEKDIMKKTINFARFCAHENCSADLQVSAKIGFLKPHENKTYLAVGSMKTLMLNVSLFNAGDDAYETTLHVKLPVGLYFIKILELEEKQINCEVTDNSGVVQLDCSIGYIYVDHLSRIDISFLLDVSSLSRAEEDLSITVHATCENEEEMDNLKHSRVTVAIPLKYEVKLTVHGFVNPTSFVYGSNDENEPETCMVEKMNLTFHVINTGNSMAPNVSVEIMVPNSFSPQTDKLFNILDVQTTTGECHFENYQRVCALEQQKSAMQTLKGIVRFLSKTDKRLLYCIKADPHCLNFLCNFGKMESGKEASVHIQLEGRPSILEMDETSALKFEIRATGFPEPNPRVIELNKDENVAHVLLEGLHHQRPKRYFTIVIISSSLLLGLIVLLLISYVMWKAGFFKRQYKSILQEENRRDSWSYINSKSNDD
Sequence (P05556 21-798): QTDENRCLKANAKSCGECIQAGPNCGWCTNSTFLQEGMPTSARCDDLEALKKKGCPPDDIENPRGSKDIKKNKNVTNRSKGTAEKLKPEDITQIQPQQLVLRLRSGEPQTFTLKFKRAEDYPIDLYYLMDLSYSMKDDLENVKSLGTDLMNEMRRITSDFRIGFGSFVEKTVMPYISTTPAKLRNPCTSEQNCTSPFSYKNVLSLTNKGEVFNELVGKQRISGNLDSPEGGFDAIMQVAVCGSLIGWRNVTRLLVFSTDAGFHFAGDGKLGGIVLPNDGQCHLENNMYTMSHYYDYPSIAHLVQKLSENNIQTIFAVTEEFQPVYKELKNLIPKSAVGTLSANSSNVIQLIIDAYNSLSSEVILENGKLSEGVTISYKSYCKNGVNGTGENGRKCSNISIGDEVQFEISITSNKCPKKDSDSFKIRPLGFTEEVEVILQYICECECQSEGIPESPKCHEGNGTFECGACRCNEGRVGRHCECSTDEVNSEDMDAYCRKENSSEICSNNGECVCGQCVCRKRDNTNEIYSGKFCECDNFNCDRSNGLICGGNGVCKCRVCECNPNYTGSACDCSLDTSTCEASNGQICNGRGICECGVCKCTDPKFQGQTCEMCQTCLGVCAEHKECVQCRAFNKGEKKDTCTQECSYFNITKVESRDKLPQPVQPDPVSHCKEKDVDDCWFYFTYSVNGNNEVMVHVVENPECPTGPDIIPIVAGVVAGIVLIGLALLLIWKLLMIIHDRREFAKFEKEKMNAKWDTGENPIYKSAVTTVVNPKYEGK
Assay: Adhesion of calcein-labeled Ramos cells to CS1 (fibronectin) peptide conjugated ovalbumin
Type: cell-based
Details: Table 2; Ramos cell adhesion to CS1 conjugated ovalbumin, 30 minutes at 37° C.
recorded.metric: IC50 (nM)

structure.notation | val
O=C(O)C[C@H](NC(=O)Nc1cccn(Cc2cccs2)c1=O)c1ccc2c(c1)OCO2 | 900
O=C(O)C[C@H](NC(=O)N[C@H]1CCCCN(Cc2cccs2)C1=O)c1ccc2c(c1)OCO2 | 15
O=C(O)C[C@H](NC(=O)N[C@@H]1CCCN(Cc2cccs2)C1=O)c1ccc2c(c1)OCO2 | 2000
O=C(O)C[C@H](NC(=O)N[C@H]1CCN(Cc2cccs2)C1=O)c1ccc2c(c1)OCO2 | 15000
Cc1ccccc1NC(=O)Nc1ccc(Cn2cccc(NC(=O)N[C@@H](CC(=O)O)c3ccc4c(c3)OCO4)c2=O)cc1 | 1
CCCCN(C(=O)N[C@@H](CC(=O)O)c1ccc2c(c1)OCO2)c1cccn(Cc2cccs2)c1=O | 20000
Cc1ccccc1NC(=O)Nc1ccc(CN2CCC[C@H](NC(=O)N[C@@H](CC(=O)O)c3ccc4c(c3)OCO4)C2=O)cc1 | 0.3
O=C(O)C[C@H](NC(=O)N[C@H]1CCCN(Cc2cccs2)C1=O)c1ccc2c(c1)OCO2 | 200

====

Target: α4β1 integrin (Homo sapiens, UniProt P05556+P13612)
Construct: endogenous in cells; host or cells: Ramos cells
Test: Adhesion of calcein-labeled Ramos cells to CS1 (fibronectin) peptide conjugated ovalbumin
Type: cell-based
Conditions: Table 7; Ramos cell adhesion to CS1 conjugated ovalbumin; dose required to give 50% inhibition
Source text: A procedure in which a 26-amino acid peptide containing the CS1 sequence of fibronectin with an N-terminal Cys ([…]) was coupled to maleimide activated ovalbumin was used to determine the efficacy of the compounds synthesized. […] Following three washes with binding buffer, adherent cells were lysed and quantitated using a fluorometer. […]
pIC50: −log10 of the molar value.

compound | test.target | pIC50
CCOc1cccc([C@H](CC(=O)O)NC(=O)Nc2c(O)c3c(n(Cc4c(OCC)ccc(Cl)c4Cl)c2=O)CCC3)c1 | α4β1 integrin (Homo sapiens, UniProt P05556+P13612) | 8.52
O=C(O)C[C@H](NC(=O)Nc1c(O)c2c(n(Cc3ccccc3Cl)c1=O)CCC2)c1ccc(C2CC2)cc1 | α4β1 integrin (Homo sapiens, UniProt P05556+P13612) | 7.60
CCOc1cccc(Cl)c1Cn1c2c(c(O)c(NC(=O)N[C@@H](CC(=O)O)c3ccc(C)cc3)c1=O)CCC2 | α4β1 integrin (Homo sapiens, UniProt P05556+P13612) | 8.52
CCc1nn(Cc2ccccc2Cl)c(=O)c(NC(=O)N[C@@H](CC(=O)O)c2ccc(C)cc2)c1O | α4β1 integrin (Homo sapiens, UniProt P05556+P13612) | 7.66
CCC(CC)Oc1cccc([C@H](CC(=O)O)NC(=O)Nc2c(O)c3c(n(Cc4c(C)cccc4Cl)c2=O)CCC3)c1 | α4β1 integrin (Homo sapiens, UniProt P05556+P13612) | 7.66
CCOc1ccc(Cl)c(Cl)c1Cn1c2c(c(O)c(NC(=O)N[C@@H](CC(=O)O)c3cccc(OC(C)C)c3)c1=O)CCC2 | α4β1 integrin (Homo sapiens, UniProt P05556+P13612) | 8.30
CCCc1ccc([C@H](CC(=O)O)NC(=O)Nc2c(O)c3c(n(Cc4c(C)cccc4Cl)c2=O)CCC3)cc1 | α4β1 integrin (Homo sapiens, UniProt P05556+P13612) | 7.70
CCOc1cccc([C@H](CC(=O)O)NC(=O)Nc2c(O)c(Cl)cn(Cc3c(Cl)cccc3OCC)c2=O)c1 | α4β1 integrin (Homo sapiens, UniProt P05556+P13612) | 8.52
CC(C)c1ccc([C@H](CC(=O)O)NC(=O)Nc2c(O)c3c(n(Cc4ccccc4Cl)c2=O)CCC3)cc1 | α4β1 integrin (Homo sapiens, UniProt P05556+P13612) | 7.77
CCOc1cccc(Cl)c1Cn1c2c(c(O)c(NC(=O)N[C@@H](CC(=O)O)c3cccc(CC(C)C)c3)c1=O)CCC2 | α4β1 integrin (Homo sapiens, UniProt P05556+P13612) | 8.40
Cc1cccc([C@H](CC(=O)O)NC(=O)Nc2c(O)c3c(n(Cc4c(C)cccc4Cl)c2=O)CCC3)c1 | α4β1 integrin (Homo sapiens, UniProt P05556+P13612) | 8.40
CCOc1cccc(Cl)c1Cn1nc(C)c(O)c(NC(=O)N[C@@H](CC(=O)O)c2cccc(OC(C)C)c2)c1=O | α4β1 integrin (Homo sapiens, UniProt P05556+P13612) | 8.70
Cc1ccc([C@H](CC(=O)O)NC(=O)Nc2c(O)c(C)cn(Cc3cc(C(F)(F)F)ccc3Cl)c2=O)cc1 | α4β1 integrin (Homo sapiens, UniProt P05556+P13612) | 8.22
CCOc1cccc(Cl)c1Cn1nc(C)c(O)c(NC(=O)N[C@@H](CC(=O)O)c2ccc(C)cc2)c1=O | α4β1 integrin (Homo sapiens, UniProt P05556+P13612) | 8.15
CCN(CC)c1cccc([C@H](CC(=O)O)NC(=O)Nc2c(O)c(C)cn(Cc3ccccc3Cl)c2=O)c1 | α4β1 integrin (Homo sapiens, UniProt P05556+P13612) | 8.70
COc1c(C)cc([C@H](CC(=O)O)NC(=O)Nc2c(O)c3c(n(Cc4ccccc4Cl)c2=O)CCC3)cc1C | α4β1 integrin (Homo sapiens, UniProt P05556+P13612) | 7.96
CCN(c1cccc([C@H](CC(=O)O)NC(=O)Nc2c(O)c3c(n(Cc4ccccc4Cl)c2=O)CCC3)c1)S(C)(=O)=O | α4β1 integrin (Homo sapiens, UniProt P05556+P13612) | 9.00
CCOc1cccc(-c2ccc([C@H](CC(=O)O)NC(=O)Nc3c(O)ccn(Cc4ccccc4Cl)c3=O)cc2)c1 | α4β1 integrin (Homo sapiens, UniProt P05556+P13612) | 7.57
O=C(O)C[C@H](NC(=O)Nc1c(O)c2c(n(Cc3ccccc3Cl)c1=O)CCC2)c1cccc(F)c1 | α4β1 integrin (Homo sapiens, UniProt P05556+P13612) | 7.80
Cc1cccc(Cl)c1Cn1c2c(c(O)c(NC(=O)N[C@@H](CC(=O)O)c3cccc(NS(C)(=O)=O)c3)c1=O)CCC2 | α4β1 integrin (Homo sapiens, UniProt P05556+P13612) | 8.52
O=C(O)C[C@H](NC(=O)Nc1c(O)c2c(n(Cc3ccccc3Cl)c1=O)CCC2)c1cccc(O)c1 | α4β1 integrin (Homo sapiens, UniProt P05556+P13612) | 8.10
Cc1ccc([C@H](CC(=O)O)NC(=O)Nc2c(O)c(C)cn(Cc3c(Cl)cccc3OCC(C)C)c2=O)cc1 | α4β1 integrin (Homo sapiens, UniProt P05556+P13612) | 7.66
Cc1ccc([C@H](CC(=O)O)NC(=O)Nc2c(O)c(C)cn(Cc3c(Cl)cccc3OCc3ccccc3)c2=O)cc1 | α4β1 integrin (Homo sapiens, UniProt P05556+P13612) | 8.00
O=C(O)C[C@H](NC(=O)Nc1c(O)c2c(n(Cc3ccccc3Cl)c1=O)CCC2)c1cccc(C(F)(F)F)c1 | α4β1 integrin (Homo sapiens, UniProt P05556+P13612) | 8.00
O=C(O)C[C@H](NC(=O)Nc1c(O)c2c(n(Cc3ccccc3Cl)c1=O)CCC2)c1ccc(OC(F)F)cc1 | α4β1 integrin (Homo sapiens, UniProt P05556+P13612) | 7.89
CCOc1ncc([C@H](CC(=O)O)NC(=O)Nc2c(O)c(C)cn(Cc3ccccc3Cl)c2=O)c(OCC)n1 | α4β1 integrin (Homo sapiens, UniProt P05556+P13612) | 7.89
CCOc1cccc(Cl)c1Cn1cc(C2CC2)c(O)c(NC(=O)N[C@@H](CC(=O)O)c2ccc(C)cc2)c1=O | α4β1 integrin (Homo sapiens, UniProt P05556+P13612) | 8.52
Cc1cccc(Cl)c1Cn1c2c(c(O)c(NC(=O)N[C@@H](CC(=O)O)c3cccc(OC4CCC4)c3)c1=O)CCC2 | α4β1 integrin (Homo sapiens, UniProt P05556+P13612) | 7.70
CCn1c(=O)n(CC)c2cc([C@H](CC(=O)O)NC(=O)Nc3c(O)c4c(n(Cc5ccccc5Cl)c3=O)CCC4)ccc21 | α4β1 integrin (Homo sapiens, UniProt P05556+P13612) | 8.40
CCOc1cccc(Cl)c1Cn1cc(C2CC2)c(O)c(NC(=O)N[C@@H](CC(=O)O)c2cccc(OC(C)C)c2)c1=O | α4β1 integrin (Homo sapiens, UniProt P05556+P13612) | 8.52
CSc1ccc(C(CC(=O)O)NC(=O)Nc2c(O)c(C)cn(Cc3ccccc3Cl)c2=O)cc1 (centres unmarked) | α4β1 integrin (Homo sapiens, UniProt P05556+P13612) | 7.82
CCCc1cn(Cc2c(Cl)cccc2OCC)c(=O)c(NC(=O)N[C@@H](CC(=O)O)c2cccc(OCC)c2)c1O | α4β1 integrin (Homo sapiens, UniProt P05556+P13612) | 8.22
